Below, each entry is listed with its recorded Mortality.
- System: cirrus red mite (Panonychus citri McGregor)
- Experiment Description: Test Example 4: activity to citrus red mite (Rothamstead method)
- Assay type: in vivo
- Parameters: concentration or dose not given beside the values
- Condition Description: two days after treatment, 25° C.; 2880 min

{"columns": ["Compound", "Units Label", "Mortality"],
 "data": [
  ["CCCCCCN1C(=O)N(c2ccccc2)CSC1=NC(C)C", "%", 100],
  ["CC(C)N=C1SCN(C)C(=O)N1C(C)C", "%", 50],
  ["CCCCCCCCN1C(=O)N(c2ccccc2)CSC1=NC(C)CC (centres unmarked)", "%", 100],
  ["CC(C)CN=C1SCN(c2ccccc2)C(=O)N1CC(C)C", "%", 100],
  ["CCC(C)N1C(=O)N(c2ccc(C)cc2)CSC1=NC(C)(C)C (centres unmarked)", "%", 100],
  ["CN1C(=N)SCN(c2ccccc2)C1=O", "%", 100],
  ["CCCN1C(=O)N(c2ccccc2)CSC1=NC(C)C", "%", 100],
  ["C=CCN1CSC(=NC(C)C)N(C)C1=O", "%", 80]
]}

// data source = patent US4159328A
